These entries and their values trace back to ChEMBL document CHEMBL4689842.

System: HEK-293T
PROTOCOL: Incucyte cell viability with HEK293T; further: filed as whole numbers so only -1 and 0 and 1 occur
Assay type: toxicity, cell-based
CONDITION SET: human, 12 h, 10 µM, compound concentration 10 uM, replicate number 2, timepoint 12 hours
Growth Rate values, listed per item
Just the number, please, no unit after it.

Example results:
O=C(O)CC1CCC2(CC1)CCN(c1cc(OC(F)(F)F)ccc1Cl)CC2: 1
CN1C(=O)[C@@H](N2CCc3c(nn(Cc4ccccc4)c3Br)C2=O)COc2ccccc21: 0
CC(C)NCC(O)c1ccc(N)c(C#N)c1 (stereo not drawn): 1
CNc1cc2[nH]c(=O)n(-c3ccc(NC(=O)NS(=O)(=O)c4ccc(Cl)s4)cc3)c(=O)c2cc1F: 1
CNc1nc(-c2ccc3c(N)n[nH]c3c2)cc(N2C[C@@H](C(=O)NC3CCCCC3)CC[C@H]2C)n1: 0

Look at this compound and give its reported Growth Rate. N#Cc1ccccc1OCC(O)CNCCNC(=O)Nc1ccccc1 (stereo not drawn)
1

Now the compound CN(C)C(=O)c1ccc(-c2cc(C(=O)N(C)C3CCCC3)no2)cc1O
1

Now the compound CCCCc1nc2ccc(NC(=O)NC3CCCCC3)cc2n1Cc1ccc(-c2ccccc2C(=O)O)cc1
1

Now the compound CC(C)CC(=O)N1CCc2nc(-c3ccc(Br)cc3)nc(N(C)Cc3ccccc3)c2C1
0

Now the compound CN(C)C(=O)Cn1cc(-c2nc(C3(c4ccc(-c5cnc(N)nc5)cc4)CC3)no2)cn1
1

Now the compound CCC(=O)N1CC[C@H](Nc2ncnc3c2CN(c2cnc(OC)c(C(F)(F)F)c2)CC3)C1
1

Now the compound Cc1cc(C(=O)N2Cc3cnn(C)c3Nc3ccccc32)ccc1CNC(=O)N1CCC[C@H]1C(=S)N1CCCN(C)CC1
1

Now the compound O=C(Nc1cccnc1)c1cc(-c2ccnc(F)c2)ccc1OCc1ccccc1
1
